Data origin: paper PMC10397247

study.system: T1, P2-AA-12HGe-W
T1 chain: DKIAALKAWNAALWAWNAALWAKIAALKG
experimental.details: two-hybrid library CCmax;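 further: natural log of median RNA to DNA barcode read ratio; higher means stronger binding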
assay.context: mean of both orientations
endpoint: interaction score
Numbers only.

These solved cases illustrate the format of a correct answer.
binder	interaction score
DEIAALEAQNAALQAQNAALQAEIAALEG [P1-AA-12HGe-Q]	-0.264
DEIAALEARNAALRARNAALRAEIAALEG [P1-AA-12HGe-R]	-1.15
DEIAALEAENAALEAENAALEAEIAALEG [P1-AA]	1.66

Problem: # lookup: interaction score of DEIAALEATNAALTATNAALTAEIAALEG [P1-AA-12HGe-T]
Solution: -1.56
